Test system UniProtKB P20813, IC50 listed for each of the compounds.
Sequence (P20813 whole entry): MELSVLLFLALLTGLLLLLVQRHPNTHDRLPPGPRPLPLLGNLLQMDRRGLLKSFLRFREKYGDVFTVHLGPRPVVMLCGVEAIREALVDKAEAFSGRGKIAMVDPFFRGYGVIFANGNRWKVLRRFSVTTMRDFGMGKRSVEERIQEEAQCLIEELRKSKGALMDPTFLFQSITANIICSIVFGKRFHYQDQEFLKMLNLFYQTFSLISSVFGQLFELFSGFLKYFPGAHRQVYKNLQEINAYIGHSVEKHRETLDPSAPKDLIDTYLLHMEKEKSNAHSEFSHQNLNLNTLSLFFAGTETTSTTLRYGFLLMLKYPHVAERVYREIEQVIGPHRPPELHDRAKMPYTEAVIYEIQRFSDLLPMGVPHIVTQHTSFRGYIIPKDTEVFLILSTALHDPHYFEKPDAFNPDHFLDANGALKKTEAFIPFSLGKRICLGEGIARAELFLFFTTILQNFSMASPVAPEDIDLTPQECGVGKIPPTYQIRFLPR

{"columns": ["compound", "IC50"],
 "data": [
  ["COc1ccc(F)c(-n2ncc3c2CCC[C@H]3NC(=O)c2ncn3c2CCCC3)c1Cl [Compound C, reference compound]", "> 30 µM"]
]}

Moving on to the next compound.
Form field - read-out: IC50; system: UniProtKB P20813; submitted item: COc1ccc(F)c(-n2ncc3c2COC[C@H]3NC(=O)c2ncn3c2CCCC3)c1Cl (single isomer, unassigned)
> 30 µM

----------
experimental_system: recombinant human DHODH (Homo sapiens (Human), UniProt Q02127)
Sequence (Q02127 whole entry): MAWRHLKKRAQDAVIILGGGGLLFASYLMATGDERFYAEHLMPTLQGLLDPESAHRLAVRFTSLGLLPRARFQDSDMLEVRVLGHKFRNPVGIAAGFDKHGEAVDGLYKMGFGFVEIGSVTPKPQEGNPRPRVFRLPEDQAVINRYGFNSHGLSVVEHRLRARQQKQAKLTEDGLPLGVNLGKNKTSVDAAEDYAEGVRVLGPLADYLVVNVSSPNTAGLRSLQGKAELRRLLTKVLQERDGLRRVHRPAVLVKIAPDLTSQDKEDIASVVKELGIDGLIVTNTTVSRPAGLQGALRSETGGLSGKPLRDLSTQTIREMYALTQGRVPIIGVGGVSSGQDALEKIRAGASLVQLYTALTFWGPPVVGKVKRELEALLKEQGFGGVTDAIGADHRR
method_description: DHODH enzyme assay (Assay A), DCIP absorbance
Assay type: biochemical
property_measured: IC50

# annotated cases, reported IC50 shown
{"columns": ["test_smiles", "measured"],
 "data": [
  ["CNC(=O)COc1cccc(-n2ncc3c2COC[C@H]3NC(=O)c2ncn3c2CCCC3)c1Cl", "10 to 100 nM"],
  ["O=C(N[C@@H]1COCc2c1cnn2-c1cccc(C(=O)N2CCOCC2)c1Cl)c1ncn2c1CCCC2", "10 to 100 nM"]
]}

Would you kindly share the measured IC50 for "O=C(N[C@@H]1COCc2c1cnn2-c1cccc(O)c1Cl)c1ncn2c1CCCC2" ?
10 to 100 nM

----------
experimental_system: UniProt P10635
Sequence (P10635 whole entry): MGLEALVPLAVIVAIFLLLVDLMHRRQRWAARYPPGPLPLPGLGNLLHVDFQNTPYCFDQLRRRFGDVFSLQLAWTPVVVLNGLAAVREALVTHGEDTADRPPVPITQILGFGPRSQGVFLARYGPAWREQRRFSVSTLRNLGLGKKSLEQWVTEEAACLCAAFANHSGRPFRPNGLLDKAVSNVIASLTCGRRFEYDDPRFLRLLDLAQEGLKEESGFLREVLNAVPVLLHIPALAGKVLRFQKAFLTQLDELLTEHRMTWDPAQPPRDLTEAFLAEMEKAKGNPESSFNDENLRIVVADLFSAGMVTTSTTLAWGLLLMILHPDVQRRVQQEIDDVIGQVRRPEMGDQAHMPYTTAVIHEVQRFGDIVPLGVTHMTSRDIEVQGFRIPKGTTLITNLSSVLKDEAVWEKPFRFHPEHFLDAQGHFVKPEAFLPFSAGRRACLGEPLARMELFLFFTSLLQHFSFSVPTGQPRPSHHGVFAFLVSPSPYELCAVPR
property_measured: IC50

{"columns": ["compound", "measured"],
 "data": [
  ["COc1ccc(F)c(-n2ncc3c2COC[C@H]3NC(=O)c2ncn3c2CCCC3)c1Cl (single isomer, unassigned)", "> 30 µM"]
]}

Here is another compound to look at.
May I ask what IC50 has been recorded for COc1ccc(F)c(-n2ncc3c2CCC[C@H]3NC(=O)c2ncn3c2CCCC3)c1Cl [Compound C, reference compound] ?
> 30 µM

----------
Parameter HLM % remaining: see the listing below.
method_description: in vitro
settings: % remaining at 60 min; 1 μM
// units = %; emit number, no label

The examples below pair each entry with its known result.
{"columns": ["compound", "property_measured", "unit_symbol", "measured"],
 "data": [
  ["O=C(N[C@@H]1COCc2c1cnn2-c1c(F)cccc1Cl)c1ncn2c1CCCC2 (single isomer, unassigned) [Ex-11]", "HLM % remaining", "%", 93],
  ["O=C(N[C@@H]1COCc2c1cnn2-c1c(F)cccc1F)c1ncn2c1CCCC2 [Ex-59]", "HLM % remaining", "%", 91],
  ["Cc1ccc(Cl)c(-n2ncc3c2COC[C@H]3NC(=O)c2ncn3c2CCCC3)c1 [Ex-53]", "HLM % remaining", "%", 96],
  ["O=C(N[C@@H]1COCc2c1cnn2-c1ccccc1Cl)c1ncn2c1CCCC2 [Ex-51]", "HLM % remaining", "%", 85],
  ["O=C(N[C@@H]1COCc2c1cnn2-c1c(F)cccc1Cl)c1ncc2n1CCCC2 [Ex-47]", "HLM % remaining", "%", 75]
]}

Need HLM % remaining, item Cc1cccc(Cl)c1-n1ncc2c1COC[C@H]2NC(=O)c1ncn2c1CCCC2 [Ex-34]
100

Item: COc1ccc(F)c(-n2ncc3c2COC[C@H]3NC(=O)c2ncn3c2CCCC3)c1Cl (single isomer, unassigned) [Ex-9]
100

Then Cc1cccc(F)c1-n1ncc2c1COC[C@H]2NC(=O)c1ncn2c1CCCC2 [Ex-58] ?
87

----------
method_description: in vitro
settings: % remaining at 120 min; 1 μM
Recorded measurements of hHEPs % remaining, one per entry
Write the number in % without appending the unit.

Here's what some known entries look like.
{"columns": ["compound", "property_measured", "unit_symbol", "measured"],
 "data": [
  ["O=C(N[C@@H]1COCc2c1cnn2-c1ccccc1Cl)c1ncn2c1CCCC2 [Ex-51]", "hHEPs % remaining", "%", 100],
  ["COc1cccc(C)c1-n1ncc2c1COC[C@H]2NC(=O)c1ncn2c1CCCC2 [Ex-61]", "hHEPs % remaining", "%", 100],
  ["O=C(N[C@@H]1COCc2c1cnn2-c1c(F)cccc1Cl)c1ncc2n1CCCC2 [Ex-47]", "hHEPs % remaining", "%", 84],
  ["Cc1cccc(Cl)c1-n1ncc2c1COC[C@H]2NC(=O)c1ncn2c1CCCC2 [Ex-34]", "hHEPs % remaining", "%", 100],
  ["Cc1ccc(Cl)c(-n2ncc3c2COC[C@H]3NC(=O)c2ncn3c2CCCC3)c1 [Ex-53]", "hHEPs % remaining", "%", 99]
]}

hHEPs % remaining lookup needed for COc1ccc(F)c(-n2ncc3c2CCC[C@H]3NC(=O)c2ncn3c2CCCC3)c1Cl [Compound C, reference compound] , thanks.
100

Here is the next compound: O=C(N[C@H]1COCc2c1cnn2-c1c(F)cccc1Cl)c1ncn2c1CCCC2 (single isomer, unassigned) [Ex-10]
100

Repeat for the following compound: O=C(N[C@@H]1COCc2c1cnn2-c1ccccc1F)c1n[nH]c2c1CCCC2 [Ex-42]
76

----------
method_description: in vitro
settings: % remaining at 60 min; 1 μM
property_measured: HLM % remaining

{"columns": ["compound", "HLM % remaining"],
 "data": [
  ["CC(C)OC(=O)c1cccc(-n2ncc3c2COC[C@H]3NC(=O)c2ncn3c2CCCC3)c1Cl", "0.14%"],
  ["CCc1c(C(=O)N[C@@H]2COCc3c2cnn3-c2ccccc2F)ncn1C", "100%"],
  ["O=C(N[C@@H]1COCc2c1cnn2-c1c(Cl)cccc1Cl)c1ncn2c1CCCC2 (single isomer, unassigned)", "88%"],
  ["CCc1c(C(=O)N[C@@H]2COCc3c2cnn3-c2ccccc2F)n[nH]c1C", "92%"]
]}

Reported HLM % remaining, compound "O=C(N[C@@H]1COCc2c1cnn2-c1c(F)cccc1Cl)c1n[nH]c2c1CCCC2" : ____
90%

Follow-up item: "Cc1cnc(C(=O)N[C@@H]2COCc3c2cnn3-c2c(F)cccc2Cl)cc1C"
96%

Same lookup for O=C(N[C@@H]1COCc2c1cnn2-c1ccccc1F)c1ncc2n1CCCC2 (single isomer, unassigned) , please.
85%

How about this compound: "COc1cccc(C)c1-n1ncc2c1COC[C@H]2NC(=O)c1ncn2c1CCCC2"
94%

Now consider "Cc1ccccc1-n1ncc2c1COC[C@H]2NC(=O)c1ncn2c1CCCC2" .
84%

----------
experimental_system: recombinant human DHODH (Homo sapiens (Human), UniProt Q02127)
method_description: DHODH enzyme assay (Assay A), DCIP absorbance
Assay type: biochemical
settings: read-out: IC50 DHODH inhibition activity
pIC50: −log10 of the molar value.
property_measured: pIC50

{"columns": ["compound", "property_measured", "measured"],
 "data": [
  ["COc1ccc(F)c(-n2ncc3c2COC[C@H]3NC(=O)c2noc3c2CCCC3)c1Cl [Ex-31]", "pIC50", "> 8.00"]
]}

From here, focus on the item given below.
Tell me the measured pIC50 of COCCOc1cccc(-n2ncc3c2COC[C@H]3NC(=O)c2ncn3c2CCCC3)c1Cl [Ex-67] , please.
> 8.00

----------
Tested on: MOLM-13 cells
method_description: MOLM-13 cell viability (Assay B), Cell Titer-Glo
Type: cell-based
settings: Homo sapiens, MOLM-13; 72 hours; bins ≥10 nM-<100 nM and <10 nM; read-out: IC50 MOLM13 inhibition activity
pIC50: −log10 of the molar value.
property_measured: pIC50

Use these answered entries as a reference point.
{"columns": ["compound", "measured"],
 "data": [
  ["O=C(N[C@@H]1COCc2c1cnn2-c1ccccc1F)c1ncc2n1CCCC2 (single isomer, unassigned)", "7.00 to 8.00"],
  ["O=C(N[C@@H]1COCc2c1cnn2-c1ccccc1F)c1ncn2c1CCCC2 (single isomer, unassigned)", "7.00 to 8.00"],
  ["COc1ccccc1-n1ncc2c1COC[C@H]2NC(=O)c1ncn2c1CCCC2", "7.00 to 8.00"]
]}

Consider now this further compound.
// pIC50 lookup, key: "O=C(N[C@@H]1COCc2c1cnn2-c1ccccc1C(F)(F)F)c1ncn2c1CCCC2"
7.00 to 8.00

----------
experimental_system: recombinant human DHODH (Homo sapiens (Human), UniProt Q02127)
method_description: DHODH enzyme assay (Assay A), DCIP absorbance
Type: biochemical
settings: bins ≥10 nM-<100 nM and <10 nM; read-out: IC50 DHODH inhibition activity
property_measured: IC50

{"columns": ["compound", "IC50"],
 "data": [
  ["COc1ccc(F)c(-n2ncc3c2COC[C@H]3NC(=O)c2ncc3n2CCCC3)c1Cl", "< 10 nM"],
  ["CCc1c(C(=O)N[C@@H]2COCc3c2cnn3-c2c(C)cccc2Cl)n[nH]c1C", "10 to 100 nM"],
  ["Cc1cccc(Cl)c1-n1ncc2c1COC[C@H]2NC(=O)c1ncc2n1CCCC2", "< 10 nM"],
  ["O=C(N[C@@H]1COCc2c1cnn2-c1c(F)cccc1Cl)c1ncc2n1CCCC2", "< 10 nM"],
  ["Cc1cnc(C(=O)N[C@@H]2COCc3c2cnn3-c2c(F)cccc2Cl)cc1C", "10 to 100 nM"]
]}

Entry "CCc1c(C(=O)N[C@@H]2COCc3c2cnn3-c2cccc(OC)c2Cl)n[nH]c1C" has what IC50?
< 10 nM

Queued: "CCc1c(C(=O)N[C@@H]2COCc3c2cnn3-c2c(C)cccc2Cl)ncn1C"
< 10 nM

For "Cc1cccc(-n2ncc3c2COC[C@H]3NC(=O)c2n[nH]c3c2CCCC3)c1Cl" then?
10 to 100 nM

"O=C(N[C@@H]1COCc2c1cnn2-c1cccc(C(=O)N2CCCCC2)c1Cl)c1ncn2c1CCCC2" ?
< 10 nM

Also COc1ccc(F)c(-n2ncc3c2COC[C@H]3NC(=O)c2ncn3c2CCCC3)c1Cl (single isomer, unassigned) , if possible.
< 10 nM

Try the compound "Cc1ccccc1-n1ncc2c1COC[C@H]2NC(=O)c1ncn2c1CCCC2"
10 to 100 nM

Another compound to check: "O=C(N[C@@H]1COCc2c1cnn2-c1ccccc1C(F)(F)F)c1ncn2c1CCCC2"
10 to 100 nM
